system: recombinant human secretory phospholipase A2 (Homo sapiens)
Sequence (P14555 21-144): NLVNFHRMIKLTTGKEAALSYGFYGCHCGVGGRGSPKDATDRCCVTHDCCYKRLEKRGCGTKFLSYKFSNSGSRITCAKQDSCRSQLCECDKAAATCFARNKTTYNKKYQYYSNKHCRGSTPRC
assaySummary: Inhibition test of human secretory phospholipase A2 (chromogenic assay, 96 well microtiterplate)
cond: sPLA2 50 ng/well, 40° C., 30 minutes, OD 405 nm, substrate 1,2-bis(heptanoylthio)-1,2-dideoxy-sn-glycero-3-phospholylcholine
pIC50: −log10 of the molar value.
readoutKind: pIC50

Here are 5 compounds together with their reported answers.
- CCc1c(C(=O)C(N)=O)c2c(OCC(=O)O)ccnn2c1Cc1ccccc1 [Compound I-2]: 8.05
- COC(=O)COc1cc(-c2ccccc2)nn2c(Cc3ccccc3)c(C)c(C(=O)C(N)=O)c12 [Compound I-45]: 7.52
- CCc1c(C(=O)C(N)=O)c2c(OCC(=O)O)cc(C3CCCCC3)nn2c1Cc1ccccc1 [Compound I-67]: 7.80
- COC(=O)COc1cc(Cc2ccccc2)nn2c(C)c(C)c(C(=O)C(N)=O)c12 [Compound I-51]: 4.59
- CCc1c(C(=O)C(N)=O)c2c(OCC(=O)OC)ccnn2c1Cc1ccccc1 [Compound I-1]: 6.61

1: CCc1c(C(=O)C(N)=O)c2c(OCC(=O)O)cc(CN3CCN(C)CC3)nn2c1Cc1ccccc1 [Compound I-61]
2: CCc1cc(OCC(=O)OC)c2c(C(=O)C(N)=O)c(CC)c(Cc3ccccc3)n2n1 [Compound I-8]
3: CCc1c(C(=O)C(N)=O)c2c(OCC(=O)O)cc(CN3CCOCC3)nn2c1Cc1ccccc1 [Compound I-60]
4: CCc1c(C(=O)C(N)=O)c2c(OCC(=O)O)cc(COc3ccccc3)nn2c1Cc1ccccc1 [Compound I-57]
### Prompt Please list the entries, largest pIC50 first. In your reply, arrange the labels in the requested order.
### Response 4, 2, 3, 1

I: COCc1cc(OCC(=O)OC)c2c(C(=O)C(N)=O)c(C)c(Cc3ccccc3)n2n1 [Compound I-44]
II: CCc1c(C(=O)C(N)=O)c2c(OCC(=O)O)cc(COc3ccc(F)cc3)nn2c1Cc1ccccc1 [Compound I-75]
### Prompt Rank I against II by their pIC50 values and give the higher one. Please reply using the label of the selected record.
### Response II
